Test: Neuromics in vitro 3D blood-brain barrier model (brain endothelial cells, pericytes, astrocytes)
Type: in vitro ADME, human
Conditions: human
Measurement type: Papp at 30 min (×10⁻⁶ cm/s)

>>> reported_result("Cn1nnc2c(C(N)=O)ncn2c1=O [TMZ, temozolomide, reference compound]")
172
